# measured.on: P300 (Homo sapiens, UniProt Q09472)
# Sequence (Q09472 whole entry): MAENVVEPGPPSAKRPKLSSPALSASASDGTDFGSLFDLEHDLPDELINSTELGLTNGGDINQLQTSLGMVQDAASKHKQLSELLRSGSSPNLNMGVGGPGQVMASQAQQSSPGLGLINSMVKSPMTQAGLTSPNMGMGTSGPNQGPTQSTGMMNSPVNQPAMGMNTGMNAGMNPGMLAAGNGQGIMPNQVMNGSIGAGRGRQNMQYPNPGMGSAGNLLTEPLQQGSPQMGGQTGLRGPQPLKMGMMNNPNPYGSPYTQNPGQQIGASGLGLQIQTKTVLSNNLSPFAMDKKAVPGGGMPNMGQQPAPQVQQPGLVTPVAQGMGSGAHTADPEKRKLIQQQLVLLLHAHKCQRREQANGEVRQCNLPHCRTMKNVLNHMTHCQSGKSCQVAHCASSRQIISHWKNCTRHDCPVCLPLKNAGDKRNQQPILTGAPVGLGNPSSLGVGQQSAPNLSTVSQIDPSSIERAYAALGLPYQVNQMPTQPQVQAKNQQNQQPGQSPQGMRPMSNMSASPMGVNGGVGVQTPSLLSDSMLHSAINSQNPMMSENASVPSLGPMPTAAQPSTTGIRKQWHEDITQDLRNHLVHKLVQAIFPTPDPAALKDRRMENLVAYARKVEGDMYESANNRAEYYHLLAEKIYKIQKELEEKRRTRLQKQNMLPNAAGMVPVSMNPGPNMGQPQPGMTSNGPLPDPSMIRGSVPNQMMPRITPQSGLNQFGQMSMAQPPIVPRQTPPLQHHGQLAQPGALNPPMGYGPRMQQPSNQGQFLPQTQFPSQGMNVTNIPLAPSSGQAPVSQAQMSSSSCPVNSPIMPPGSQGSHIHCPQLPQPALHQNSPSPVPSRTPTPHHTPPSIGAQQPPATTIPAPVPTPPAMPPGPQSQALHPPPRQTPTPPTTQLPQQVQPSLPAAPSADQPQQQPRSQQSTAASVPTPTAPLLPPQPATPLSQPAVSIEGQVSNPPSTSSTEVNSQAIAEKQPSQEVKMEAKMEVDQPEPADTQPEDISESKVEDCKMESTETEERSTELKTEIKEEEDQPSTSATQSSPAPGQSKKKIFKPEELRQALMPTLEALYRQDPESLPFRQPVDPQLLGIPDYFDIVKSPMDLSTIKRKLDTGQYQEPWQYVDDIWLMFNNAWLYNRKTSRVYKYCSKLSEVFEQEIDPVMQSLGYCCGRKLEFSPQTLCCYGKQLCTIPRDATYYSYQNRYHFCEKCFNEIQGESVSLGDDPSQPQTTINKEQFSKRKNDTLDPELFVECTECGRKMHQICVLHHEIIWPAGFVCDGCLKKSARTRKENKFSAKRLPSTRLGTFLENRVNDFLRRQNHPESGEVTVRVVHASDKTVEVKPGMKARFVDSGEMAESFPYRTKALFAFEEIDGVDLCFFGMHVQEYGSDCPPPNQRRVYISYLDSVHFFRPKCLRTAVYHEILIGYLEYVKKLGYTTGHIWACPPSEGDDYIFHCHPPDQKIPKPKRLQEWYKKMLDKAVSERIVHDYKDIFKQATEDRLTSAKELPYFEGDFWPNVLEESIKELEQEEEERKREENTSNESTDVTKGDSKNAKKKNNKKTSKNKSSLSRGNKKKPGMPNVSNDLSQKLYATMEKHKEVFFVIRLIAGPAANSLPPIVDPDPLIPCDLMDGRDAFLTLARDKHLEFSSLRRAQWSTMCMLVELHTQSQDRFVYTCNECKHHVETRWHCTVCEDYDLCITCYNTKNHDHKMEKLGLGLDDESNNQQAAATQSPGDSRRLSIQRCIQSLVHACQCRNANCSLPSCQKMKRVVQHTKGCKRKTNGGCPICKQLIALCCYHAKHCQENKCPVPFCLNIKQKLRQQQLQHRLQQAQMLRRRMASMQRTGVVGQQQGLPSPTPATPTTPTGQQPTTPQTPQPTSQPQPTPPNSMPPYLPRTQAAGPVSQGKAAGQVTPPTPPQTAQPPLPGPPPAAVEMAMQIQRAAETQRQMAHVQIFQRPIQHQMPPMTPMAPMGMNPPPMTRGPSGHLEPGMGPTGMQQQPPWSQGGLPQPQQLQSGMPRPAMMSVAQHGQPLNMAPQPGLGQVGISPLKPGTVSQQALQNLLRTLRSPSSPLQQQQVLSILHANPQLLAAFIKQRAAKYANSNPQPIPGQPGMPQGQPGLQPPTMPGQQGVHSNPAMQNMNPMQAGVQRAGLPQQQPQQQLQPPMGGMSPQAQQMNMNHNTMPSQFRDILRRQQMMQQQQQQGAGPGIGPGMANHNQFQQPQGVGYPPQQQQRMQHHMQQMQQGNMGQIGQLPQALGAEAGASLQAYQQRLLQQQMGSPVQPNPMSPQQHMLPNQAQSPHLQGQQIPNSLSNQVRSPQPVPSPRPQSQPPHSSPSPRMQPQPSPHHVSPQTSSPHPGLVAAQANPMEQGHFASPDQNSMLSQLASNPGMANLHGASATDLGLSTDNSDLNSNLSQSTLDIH
# test.description: Immunoblotting of P300 protein levels in LNCaP or 22RV1 cells
# Type: cell-based
# Set-up: LNCaP or 22RV1 cells that express CBP/P300 proteins were treated with GNE-781 or the bivalent compounds; endogenous in cells; host or cells: LNCaP (clone FGC) or 22RV1 cells
# assay.setup: percentage of inhibition of p300 at 10 nM (Table 3); read-out: Degradation (10 nM)

compound | inhibition at 0.01 µM
CC(=O)N1CCc2c(c(N3CCCc4cc(-c5cnn(C)c5)c(C(F)F)cc43)nn2C2CCN(C(=O)CCCCCNc3cccc4nnn(C5CCC(=O)NC5=O)c(=O)c34)CC2)C1 (stereo not drawn) [P-151] | > 80%
CC(=O)N1CCc2c(c(N3CCCc4cc(-c5cnn(C)c5)c(C(F)F)cc43)nn2C2CCN(C(=O)CCCCCNc3cccc4nc(C)n(C5CCC(=O)NC5=O)c(=O)c34)CC2)C1 (stereo not drawn) [P-165] | 50 to 80%
CC(=O)N1CCc2c(c(N3CCCc4cc(-c5cnn(C)c5)c(C(F)F)cc43)nn2C2CCN(C(=O)CN3CCC(CNc4cccc5c4C(=O)N(C4CCC(=O)NC4=O)C5=O)CC3)CC2)C1 (stereo not drawn) [P-123] | > 80%
